# Tested on: Mast cell
# Protocol: Inhibition of compound-48/80 induced degranulation in Wistar rat peritoneal mast cells assessed as histamine release at 20 uM by spectrophotometry
Measured property: inhibition at 20 µM (%)
Number only, in %; omit the unit.

Summary: CN(C1CCCC1)C1CCC(=O)c2ccccc21 (stereo unspecified) , Mast cell, inhibition at 20 µM = 43

Summary: O=C1CCC(N(Cc2ccc([N+](=O)[O-])cc2)C2CCCC2)c2ccccc21 (stereo unspecified) , Mast cell, inhibition at 20 µM = 65

Summary: O=C1CCC(N(Cc2ccccc2)C2CCCC2)c2ccccc21 (stereo unspecified) , Mast cell, inhibition at 20 µM = 99

Summary: O=C(O)c1cc(=O)c2c(OCC(O)COc3cccc4oc(C(=O)O)cc(=O)c34)cccc2o1 [CROMOLYN SODIUM] , Mast cell, inhibition at 20 µM = 10

Summary: O=C1CCC(N(Cc2ccc3ccccc3c2)C2CCCC2)c2ccccc21 (stereo unspecified) , Mast cell, inhibition at 20 µM = 77

Summary: N#Cc1ccc(CN(C2CCCC2)C2CCC(=O)c3ccccc32)cc1 (stereo unspecified) , Mast cell, inhibition at 20 µM = 67
